Hey, just so you know, these numbers are from ChEMBL document CHEMBL2331148.

# Species: Oryctolagus cuniculus
# procedureText: Inhibition of rabbit plasma Lp-PLA2 at 100 nM by liquid scintillation counting
# Type: cell-free

smilesData | inhibition / %
C[N+](C)(Cc1ccc(F)cc1)Cc1cnc(Cn2c(SCc3ccc(F)cc3)nc(=O)c3c2CCC3)n1Cc1ccc(-c2ccc(C(F)(F)F)cc2)cc1 | 99
CN(C)C1CCN(Cc2nnc(Cn3c(SCc4ccc(F)cc4)nc(=O)c4c3CCC4)n2Cc2ccc(-c3ccc(C(F)(F)F)cc3)cc2)CC1 | 82
CCN(CC)Cc1nnc(Cn2c(SCc3ccc(F)cc3)nc(=O)c3c2CCC3)n1Cc1ccc(-c2ccc(C(F)(F)F)cc2)cc1 | 85
O=c1nc(SCc2ccc(F)cc2)n(Cc2nnc(CO)n2Cc2ccc(-c3ccc(C(F)(F)F)cc3)cc2)c2c1CCC2 | 73
CCN1CCN(Cc2nnc(Cn3c(SCc4ccc(F)cc4)nc(=O)c4c3CCC4)n2Cc2ccc(-c3ccc(C(F)(F)F)cc3)cc2)CC1 | 90
CC(C)N(C)Cc1nnc(Cn2c(SCc3ccc(F)cc3)nc(=O)c3c2CCC3)n1Cc1ccc(-c2ccc(C(F)(F)F)cc2)cc1 | 85
O=c1nc(SCc2ccc(F)cc2)n(Cc2nnc(C3CC3)n2Cc2ccc(-c3ccc(C(F)(F)F)cc3)cc2)c2c1CCC2 | 87

---

# Species: Oryctolagus cuniculus
# procedureText: Inhibition of rabbit plasma Lp-PLA2 at 10 microM by liquid scintillation counting
# Format: cell-free
Rule: inhibition under 30% gives false (0), otherwise true (1).

smilesData | classification
CCn1c(Cn2c(SCc3ccc(F)cc3)nc(=O)c3c2CCC3)nnc1-c1ccc(-c2ccc(C(F)(F)F)cc2)cc1 | true (1)
O=c1nc(SCc2ccc(F)cc2)n(Cc2nccn2Cc2ccc(-c3ccccc3)cc2)c2c1CCC2 | false (0)
CCn1c(Cc2ccc(-c3ccc(C(F)(F)F)cc3)cc2)nnc1Cn1c(SCc2ccc(F)cc2)nc(=O)c2c1CCC2 | true (1)
CCCCCCCCCCc1cnc(Cn2c(SCc3ccc(F)cc3)nc(=O)c3c2CCC3)n1CCN(CC)CC | false (0)
CCCCCCCCCCc1nnc(Cn2c(SCc3ccc(F)cc3)nc(=O)c3c2CCC3)n1CC | false (0)
CCCCCCCCCCCCn1ccnc1Cn1c(SCc2ccc(F)cc2)nc(=O)c2c1CCC2 | true (1)
O=c1nc(SCc2ccc(F)cc2)n(Cc2nccn2Cc2ccc(-c3ccc(Cl)cc3)cc2)c2c1CCC2 | true (1)
Cc1ccc(-c2ccc(Cn3ccnc3Cn3c(SCc4ccc(F)cc4)nc(=O)c4c3CCC4)cc2)cc1 | false (0)
CCN(CC)CCn1c(-c2ccc(-c3ccc(C(F)(F)F)cc3)cc2)cnc1Cn1c(SCc2ccc(F)cc2)nc(=O)c2c1CCC2 | false (0)

---

# Species on record: Homo sapiens
# procedureText: Inhibition of human plasma Lp-PLA2 at 10 nM by liquid scintillation counting
# Assay type: cell-free
parameter: inhibition (%)

compound | measuredNumber
O=c1nc(SCc2ccc(F)cc2)n(Cc2nnc(CO)n2Cc2ccc(-c3ccc(C(F)(F)F)cc3)cc2)c2c1CCC2 | 65
O=c1nc(SCc2ccc(F)cc2)n(Cc2ncc(CN3CCCC3)n2Cc2ccc(-c3ccc(C(F)(F)F)cc3)cc2)c2c1CCC2 | 67
CN(Cc1ccc(F)cc1)Cc1nnc(Cn2c(SCc3ccc(F)cc3)nc(=O)c3c2CCC3)n1Cc1ccc(-c2ccc(C(F)(F)F)cc2)cc1 | 93
O=c1nc(SCc2ccc(F)cc2)n(Cc2ncc(C[N+]3(Cc4ccc(F)cc4)CCCC3)n2Cc2ccc(-c3ccc(C(F)(F)F)cc3)cc2)c2c1CCC2 | 97
CC(O)c1nnc(Cn2c(SCc3ccc(F)cc3)nc(=O)c3c2CCC3)n1Cc1ccc(-c2ccc(C(F)(F)F)cc2)cc1 (stereo unspecified) | 89
C[N+](C)(Cc1ccc(F)cc1)Cc1nnc(Cn2c(SCc3ccc(F)cc3)nc(=O)c3c2CCC3)n1Cc1ccc(-c2ccc(C(F)(F)F)cc2)cc1 | 99
CCS(=O)(=O)NCc1nnc(Cn2c(SCc3ccc(F)cc3)nc(=O)c3c2CCC3)n1Cc1ccc(-c2ccc(C(F)(F)F)cc2)cc1 | 68
CN(C)C1CCN(Cc2nnc(Cn3c(SCc4ccc(F)cc4)nc(=O)c4c3CCC4)n2Cc2ccc(-c3ccc(C(F)(F)F)cc3)cc2)CC1 | 71
CC(C)N(C)Cc1nnc(Cn2c(SCc3ccc(F)cc3)nc(=O)c3c2CCC3)n1Cc1ccc(-c2ccc(C(F)(F)F)cc2)cc1 | 77
Cc1nnc(Cn2c(SCc3ccc(F)cc3)nc(=O)c3c2CCC3)n1Cc1ccc(-c2ccc(C(F)(F)F)cc2)cc1 | 73
CC(=O)NCc1nnc(Cn2c(SCc3ccc(F)cc3)nc(=O)c3c2CCC3)n1Cc1ccc(-c2ccc(C(F)(F)F)cc2)cc1 | 67
C[C@@H]1CN(Cc2nnc(Cn3c(SCc4ccc(F)cc4)nc(=O)c4c3CCC4)n2Cc2ccc(-c3ccc(C(F)(F)F)cc3)cc2)C[C@H](C)O1 | 69
COC(=O)C(C)(C)N1CCN(Cc2nnc(Cn3c(SCc4ccc(F)cc4)nc(=O)c4c3CCC4)n2Cc2ccc(-c3ccc(C(F)(F)F)cc3)cc2)CC1 | 51
CCN(CC)Cc1nnc(Cn2c(SCc3ccc(F)cc3)nc(=O)c3c2CCC3)n1Cc1ccc(-c2ccc(C(F)(F)F)cc2)cc1 | 78
CN(C)Cc1nnc(Cn2c(SCc3ccc(F)cc3)nc(=O)c3c2CCC3)n1Cc1ccc(-c2ccc(C(F)(F)F)cc2)cc1 | 85
CN(Cc1nnc(Cn2c(SCc3ccc(F)cc3)nc(=O)c3c2CCC3)n1Cc1ccc(-c2ccc(C(F)(F)F)cc2)cc1)C1CC1 | 77
O=c1nc(SCc2ccc(F)cc2)n(Cc2ncc(CN3CCCCC3)n2Cc2ccc(-c3ccc(C(F)(F)F)cc3)cc2)c2c1CCC2 | 69
CN(C)Cc1cnc(Cn2c(SCc3ccc(F)cc3)nc(=O)c3c2CCC3)n1Cc1ccc(-c2ccc(C(F)(F)F)cc2)cc1 | 75
CCN1CCN(Cc2nnc(Cn3c(SCc4ccc(F)cc4)nc(=O)c4c3CCC4)n2Cc2ccc(-c3ccc(C(F)(F)F)cc3)cc2)CC1 | 82
C[N+](C)(Cc1ccc(F)cc1)Cc1cnc(Cn2c(SCc3ccc(F)cc3)nc(=O)c3c2CCC3)n1Cc1ccc(-c2ccc(C(F)(F)F)cc2)cc1 | 97
CCCc1nnc(Cn2c(SCc3ccc(F)cc3)nc(=O)c3c2CCC3)n1Cc1ccc(-c2ccc(C(F)(F)F)cc2)cc1 | 88
C[N+](C)(C)Cc1nnc(Cn2c(SCc3ccc(F)cc3)nc(=O)c3c2CCC3)n1Cc1ccc(-c2ccc(C(F)(F)F)cc2)cc1 | 97
CC(C)c1nnc(Cn2c(SCc3ccc(F)cc3)nc(=O)c3c2CCC3)n1Cc1ccc(-c2ccc(C(F)(F)F)cc2)cc1 | 92
CCN(CC)Cc1cnc(Cn2c(SCc3ccc(F)cc3)nc(=O)c3c2CCC3)n1Cc1ccc(-c2ccc(C(F)(F)F)cc2)cc1 | 75
O=c1nc(SCc2ccc(F)cc2)n(Cc2nnc(C3CC3)n2Cc2ccc(-c3ccc(C(F)(F)F)cc3)cc2)c2c1CCC2 | 93
CCN(CC)CCN(Cc1ccc(-c2ccc(C(F)(F)F)cc2)cc1)C(=O)Cn1c(SCc2ccc(F)cc2)nc(=O)c2c1CCC2 | 95
